These data points were gathered from ChEMBL document CHEMBL4689842.

Item-by-item account of Population Healthy Nuclei (%)
# Test system: U2OS
# TEST_NAME: Multiplex assay against U2OS
# Format: toxicity, cell-based
# CONDITION_CONTEXT: human, 48 h, 1 µM, compound concentration 1 uM, replicate 1
Response body: numeric value in %, unit text excluded.

COMPOUND | TARGET_OR_SYSTEM | UNIT_ANNOTATION | VALUE_REPORTED
CC(C)NCC(O)COc1ccc(CCOCC2CC2)cc1.Cl (configuration not stated) [BETAXOLOL HYDROCHLORIDE] | U2OS | % | 81
COc1ncc(-c2ccc3nccc(-c4ccnnc4)c3c2)cc1NS(=O)(=O)c1ccc(F)cc1F | U2OS | % | 50
OC1(c2ccc(Cl)cc2)CCN(Cc2c[nH]c3ccccc23)CC1 | U2OS | % | 83
Cn1cc(-c2[nH]c3cc(NC(=O)[C@H](N)C4CCCCC4)cc4c3c2C=NNC4=O)cn1 | U2OS | % | 81
COc1cccc([C@@H](C)NCCCc2ccccc2Cl)c1.Cl [TECALCET HYDROCHLORIDE] | U2OS | % | 60
CN1CCN(c2ccc(OC(F)(F)F)c(Nc3ncc4c(n3)-c3c(c(C(N)=O)nn3CCO)CC4)c2)CC1 | U2OS | % | 56

Data request, read-out Population Healthy Nuclei (%), for `CN(C)C(=O)/C(C#N)=C/c1ccc(-c2nc3cnc4[nH]ccc4c3n2C2CCCCC2)o1` 85

Data request, read-out Population Healthy Nuclei (%), for `CN(C)CC#Cc1ccc(OCCCc2sc(N3CCc4cccc(C(=O)Nc5nc6ccccc6s5)c4C3)nc2C(=O)O)c(F)c1` 46

Data request, read-out Population Healthy Nuclei (%), for `Cc1cc(C)cc(-c2cnc3cc(Cl)c(-c4cccc(O)c4)cc3c2OCCCN)c1` 75

Data request, read-out Population Healthy Nuclei (%), for `Cc1c(-c2ccc(O)cc2)n(Cc2ccc(OCCN3CCCCCC3)cc2)c2ccc(O)cc12` 80

Data request, read-out Population Healthy Nuclei (%), for `Cc1[nH]c(/C=C2\C(=O)Nc3ccc(S(=O)(=O)N(C)c4cccc(Cl)c4)cc32)c(C)c1C(=O)N1CCN(C)CC1` 70

Data request, read-out Population Healthy Nuclei (%), for `CN1CCN(CCOc2cc(OC3CCOCC3)c3c(Nc4c(Cl)ccc5c4OCO5)ncnc3c2)CC1` 67

Data request, read-out Population Healthy Nuclei (%), for Cl.N#Cc1ccc2[nH]cc(CCCCN3CCN(c4ccc5oc(C(N)=O)cc5c4)CC3)c2c1 [VILAZODONE HYDROCHLORIDE] 76

Data request, read-out Population Healthy Nuclei (%), for `C=CC(=O)Nc1cccc(C(=O)Nc2ccc(Nc3cc(-c4[nH]c(SC)nc4C)ccn3)cc2)c1` 86

Data request, read-out Population Healthy Nuclei (%), for `CC[C@H](C)C(=O)O[C@H]1C[C@@H](C)C=C2C=C[C@H](C)[C@H](CC[C@@H]3C[C@@H](O)CC(=O)O3)[C@H]21` 89

Data request, read-out Population Healthy Nuclei (%), for CN1CCCC(n2nc(Cc3ccc(Cl)cc3)c3ccccc3c2=O)CC1.Cl (configuration not stated) [AZELASTINE HYDROCHLORIDE] 67

Data request, read-out Population Healthy Nuclei (%), for `CNc1nc(NCc2ccc(NS(C)(=O)=O)cc2Cl)cc(-c2ccccn2)n1` 76
